Attribution: patent US7553972B2

# experimental system: P2X7 receptor (Homo sapiens, UniProt Q99572)
# Construct: endogenous in cells
# Sequence (Q99572 whole entry): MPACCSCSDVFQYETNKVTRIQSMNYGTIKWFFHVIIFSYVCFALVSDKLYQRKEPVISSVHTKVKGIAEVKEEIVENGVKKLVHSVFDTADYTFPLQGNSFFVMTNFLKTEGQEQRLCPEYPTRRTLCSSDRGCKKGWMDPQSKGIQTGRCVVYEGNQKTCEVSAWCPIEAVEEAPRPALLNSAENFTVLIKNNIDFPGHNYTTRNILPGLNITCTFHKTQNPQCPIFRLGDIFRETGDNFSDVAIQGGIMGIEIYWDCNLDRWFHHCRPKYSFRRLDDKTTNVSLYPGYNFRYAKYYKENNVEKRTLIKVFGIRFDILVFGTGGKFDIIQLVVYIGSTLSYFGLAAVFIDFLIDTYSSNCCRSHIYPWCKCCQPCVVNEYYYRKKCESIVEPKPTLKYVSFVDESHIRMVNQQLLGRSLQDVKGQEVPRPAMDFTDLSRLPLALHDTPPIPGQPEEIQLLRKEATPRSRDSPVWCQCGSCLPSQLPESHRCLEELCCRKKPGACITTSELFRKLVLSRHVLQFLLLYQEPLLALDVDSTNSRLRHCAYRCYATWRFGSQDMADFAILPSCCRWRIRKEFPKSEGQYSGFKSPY
# measurement notes: Inhibition of ATP-stimulated IL-1β release from LPS-activated blood monocytes (P2X7 antagonist activity, ELISA readout)
# Format: cell-based
# measurement parameters: monocytes from normal volunteers, 10 ng/ml LPS 2 h, compound 30 min, 2 mM ATP 3 h, IL-1β by ELISA, triplicate wells; read-out: IC50 (inhibit 50% of the stimulation of the release of IL-1β from monocytes by ATP)
# Experimental: In like manner, the compounds of the invention can be tested for antagonist activity at the P2X7 receptor using the cytokine IL-1β as the readout. […] The cultured monocytes can be activated with 10 ng/ml LPS (E. coli serotype 055:B5; Sigma Chemicals, St. Louis, Mo.). […] Media were harvested and clarified by centrifugation, and their IL-1[…] content was determined by ELISA (R&D Systems; Minneapolis, Minn.). […]
observation type: IC50 (µM)
Give the value, in units of µM, as a plain number.

Any idea what IC50 was measured for `O=C(NCCc1ccccc1Cl)c1cc(-c2cc[nH]n2)ccc1Cl` ?
0.545

Consider next the compound `COc1ccc(-c2ccc(Cl)c(C(=O)NCC3(O)CCCCCC3)c2)nn1` in the same way.
0.28

Can you handle `O=C(NCC1(O)CCCCCC1)c1cc(-c2ccc(=O)[nH]n2)ccc1Cl` next?
0.93

Another compound to check: `O=C(NCC1(O)CCCCCC1)c1cc(-c2ccnn2CCO)ccc1Cl`
0.373

Subsequent entry: `O=C(NCC1(O)CCCCCC1)c1cc(-c2cc[nH]n2)ccc1Cl`
0.18

Ok, now Cc1ccc(-c2ccc(Cl)c(C(=O)NCC3(O)CCCC(C)(C)C3)c2)nc1 (centres unmarked)
0.011

Can you handle `Cc1cc(-c2ccc(Cl)c(C(=O)NCC3(O)CCCCCC3)c2)n(CCO)n1` next?
0.07

Further, for `Cc1cc(-c2ccc(Cl)c(C(=O)NCC3(O)CCCCCC3)c2)nn1CC(=O)N1CCCC1` ?
0.022

Param item: `Cc1cc(-c2ccc(Cl)c(C(=O)NCC3(O)CCCCCC3)c2)nn1C[C@@H](O)CN`
0.005

Another: `Cc1cc(-c2ccc(Cl)c(C(=O)NCC3(O)CCCCCC3)c2)nn1CC(=O)NCCN(C)C`
0.0035

Item: `O=C(NCC1(O)CCCCCC1)c1cc(-c2cc(C3CC3)[nH]n2)ccc1Cl`
0.05

Let us now turn to `Cc1ccc(C2(CNC(=O)c3cc(-c4cc[nH]n4)ccc3Cl)CCCCC2)cc1`
0.018

Next entry: `Cc1cc(-c2ccc(Cl)c(C(=O)NCC3(O)CCCCCC3)c2)nn1CC(N)=O`
0.018

`Cc1cc(-c2ccc(Cl)c(C(=O)NCC3(O)CCCCCC3)c2)nn1C[C@@](C)(O)CO` ?
0.006

Another compound: `O=C(NCC1(O)CCCCCC1)c1cc(-c2ccc(=O)n(CCO)n2)ccc1Cl`
0.245

Try `Cc1cc(-c2ccc(Cl)c(C(=O)NCC3(O)CCCCCC3)c2)nn1C[C@@H](O)CO` next.
0.008

Also check `Cc1cc(-c2ccc(Cl)c(C(=O)NCC3(O)CCCCCC3)c2)on1`
0.24

// query: `Cc1cc(-c2ccc(Cl)c(C(=O)NCC3(C#N)CCCCCC3)c2)[nH]n1`
0.046

What about `Cc1cc(-c2ccc(Cl)c(C(=O)NCC3(O)CCCCCC3)c2)nn1CCO` ?
0.004

// same read-out, input: `N#CCn1ccc(-c2ccc(Cl)c(C(=O)NCC3(O)CCCCCC3)c2)n1`
0.193

Also check `O=C(NCC1(O)CCCCCC1)c1cc(-c2cn[nH]n2)ccc1Cl`
0.48

Then what about the compound `O=C(NCC1(O)CCCCCC1)c1cc(-c2cc(CCO)on2)ccc1Cl` ?
0.43

Further, for Cc1cc(-c2ccc(Cl)c(C(=O)NCC3(O)CCCCCC3)c2)nn1CC(O)CN (centres unmarked) ?
0.0025
